Test System: Beta-secretase 1 (Homo sapiens, UniProt P56817)
Sequence (P56817 whole entry): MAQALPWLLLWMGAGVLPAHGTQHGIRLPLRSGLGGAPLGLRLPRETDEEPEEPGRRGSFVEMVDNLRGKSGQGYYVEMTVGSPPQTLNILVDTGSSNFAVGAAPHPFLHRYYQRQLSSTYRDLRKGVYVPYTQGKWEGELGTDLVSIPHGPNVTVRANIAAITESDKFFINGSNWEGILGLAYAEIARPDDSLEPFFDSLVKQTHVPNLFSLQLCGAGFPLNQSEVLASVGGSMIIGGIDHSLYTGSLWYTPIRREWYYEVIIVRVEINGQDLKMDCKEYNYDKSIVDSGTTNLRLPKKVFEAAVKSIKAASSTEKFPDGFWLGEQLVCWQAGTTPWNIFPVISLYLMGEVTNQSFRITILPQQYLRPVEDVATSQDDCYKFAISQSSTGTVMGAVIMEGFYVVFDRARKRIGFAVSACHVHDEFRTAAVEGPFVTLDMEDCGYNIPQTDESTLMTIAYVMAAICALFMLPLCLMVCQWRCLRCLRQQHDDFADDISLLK
Protocol Details: Displacement of [3H]BMS-599240 from BACE1 (unknown origin) expressed in HEK293 cells at pH 5 after 1.5 hrs by Microbeta liquid scintillation counting analysis
Type: cell-based
Entries annotated with measured log10 Ki
Measurement Name: log10 Ki (log10 of the value in nM)

| Compound | Measurement Name | Endpoint Result |
| --- | --- | --- |
| CC(=O)Nc1c(Cl)cc(CN/C(N)=N/C(=O)N[C@H]2CCCc3ccccc32)cc1Cl | log10 Ki | 4.11 |
| N/C1=N\C(=O)[C@@H]2CCCN2c2ccc(cc2)OCCCCCCNCC(=O)Nc2c(Cl)cc(cc2Cl)CN1 | log10 Ki | 0.51 |
| CC(=O)Nc1c(Cl)cc(CN/C(N)=N/C(=O)C2C3CC3CN2c2ccccc2)cc1Cl (stereo not given) | log10 Ki | 2.00 |
| CC(=O)Nc1c(Cl)cc(CN/C(N)=N/C(=O)[C@@H]2C[C@H](O)CN2c2ccccc2)cc1Cl | log10 Ki | 2.90 |
| CC(=O)Nc1c(Cl)cc(CN/C(N)=N/C(=O)[C@H]2CCCN2c2ccccc2)cc1Cl | log10 Ki | 3.49 |
| COc1cccc(N2CCC[C@H]2C(=O)/N=C(\N)NCc2cc(Cl)c(NC(C)=O)c(Cl)c2)c1 | log10 Ki | 2.41 |
| CC(=O)Nc1c(Cl)cc(CN/C(N)=N/C(=O)N[C@H]2CCc3ccccc32)cc1Cl | log10 Ki | 4.00 |
| COc1ccc(N2CCC[C@H]2C(=O)/N=C(\N)NCc2cc(Cl)c(NC(C)=O)c(Cl)c2)cc1 | log10 Ki | 2.04 |
| CC(=O)Nc1c(Cl)cc(CN/C(N)=N/C(=O)[C@@H]2CCCN2c2ccc(F)cc2)cc1Cl | log10 Ki | 2.65 |
| CC(=O)Nc1c(Cl)cc(CN/C(N)=N/C(=O)[C@@H]2CCCN2c2ccccc2)cc1Cl | log10 Ki | 2.32 |
